Molecular target: UniProt:P41146
pKi: −log10 of the molar value.
Reported pKi values are given for each entry in this list.
EXPERIMENTAL_ENDPOINT: pKi

INSERT INTO results (mol_smiles, experimental_endpoint, obs_value) VALUES
  ('O=C(Cc1ccccc1F)O[C@@]12CCC(=O)[C@@H]3Oc4c(O)ccc5c4[C@@]31CCN(CC1CC1)C2C5', 'pKi', 7.16),
  ('O=C(CCc1ccc(Cl)cc1)O[C@@]12CCC(=O)[C@@H]3Oc4c(O)ccc5c4[C@@]31CCN(CC1CC1)C2C5', 'pKi', 7.34),
  ('COc1ccc(CCC(=O)O[C@@]23CCC(=O)[C@@H]4Oc5c(O)ccc6c5[C@@]42CCN(CC2CC2)C3C6)cc1', 'pKi', 6.12),
  ('Cc1cccc(CCC(=O)O[C@@]23CCC(=O)[C@@H]4Oc5c(O)ccc6c5[C@@]42CCN(CC2CC2)C3C6)c1', 'pKi', 7.42);

* * *

Target: NOP (Homo sapiens)
Construct: expressed in transfected cells; host or cells: CHO cells (membranes)
Assay: [35S]GTPγS binding, NOP
Format: biochemical
Conditions: 1 h; read-out: % stim NOP
Assign labels as follows, please: fulfilled for Emax below 40%; not fulfilled for Emax equal to or exceeding 40%.

INSERT INTO measurements (mol_smiles, measurement_target, cat) VALUES
  ('O=C(CCc1cccc(Cl)c1)O[C@@]12CCC(=O)[C@@H]3Oc4c(O)ccc5c4[C@@]31CCN(CC1CC1)C2C5', 'NOP (Homo sapiens)', 'fulfilled'),
  ('COc1cccc(CCC(=O)O[C@@]23CCC(=O)[C@@H]4Oc5c(O)ccc6c5[C@@]42CCN(CC2CC2)C3C6)c1', 'NOP (Homo sapiens)', 'not fulfilled'),
  ('Cc1ccccc1CCC(=O)O[C@@]12CCC(=O)[C@@H]3Oc4c(O)ccc5c4[C@@]31CCN(CC1CC1)C2C5', 'NOP (Homo sapiens)', 'fulfilled'),
  ('COc1cccc(CC(=O)O[C@@]23CCC(=O)[C@@H]4Oc5c(O)ccc6c5[C@@]42CCN(CC2CC2)C3C6)c1', 'NOP (Homo sapiens)', 'fulfilled'),
  ('COc1ccc(CCC(=O)O[C@@]23CCC(=O)[C@@H]4Oc5c(O)ccc6c5[C@@]42CCN(CC2CC2)C3C6)cc1', 'NOP (Homo sapiens)', 'not fulfilled');

* * *

Here we list compounds with their recorded Ki when tested on NOP (Homo sapiens, UniProt P41146).
Sequence (P41146 whole entry): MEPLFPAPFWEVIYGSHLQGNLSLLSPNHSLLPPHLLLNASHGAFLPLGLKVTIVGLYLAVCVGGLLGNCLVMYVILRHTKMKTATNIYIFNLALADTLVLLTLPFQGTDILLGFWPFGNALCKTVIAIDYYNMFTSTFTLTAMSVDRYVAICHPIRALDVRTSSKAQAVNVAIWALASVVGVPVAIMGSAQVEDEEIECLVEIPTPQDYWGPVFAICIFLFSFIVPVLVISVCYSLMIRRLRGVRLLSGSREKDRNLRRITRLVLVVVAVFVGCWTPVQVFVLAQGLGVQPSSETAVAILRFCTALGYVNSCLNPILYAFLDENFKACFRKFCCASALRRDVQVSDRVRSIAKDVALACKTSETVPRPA
EXPERIMENTAL_ENDPOINT: Ki (nM)

INSERT INTO assay_data (mol_smiles, measurement_unit, obs_value) VALUES
  ('O=C(Cc1ccccc1)O[C@@]12CCC(=O)[C@@H]3Oc4c(O)ccc5c4[C@@]31CCN(CC1CC1)C2C5', 'nM', 127),
  ('O=C(CCc1ccccc1)O[C@@]12CCC(=O)[C@@H]3Oc4c(O)ccc5c4[C@@]31CCN(CC1CC1)C2C5', 'nM', 14.8),
  ('Cc1cccc(CC(=O)O[C@@]23CCC(=O)[C@@H]4Oc5c(O)ccc6c5[C@@]42CCN(CC2CC2)C3C6)c1', 'nM', 49.9),
  ('Cc1ccc(CC(=O)O[C@@]23CCC(=O)[C@@H]4Oc5c(O)ccc6c5[C@@]42CCN(CC2CC2)C3C6)cc1', 'nM', 36.3),
  ('O=C(Cc1ccccc1Cl)O[C@@]12CCC(=O)[C@@H]3Oc4c(O)ccc5c4[C@@]31CCN(CC1CC1)C2C5', 'nM', 32.6),
  ('COc1cccc(CC(=O)O[C@@]23CCC(=O)[C@@H]4Oc5c(O)ccc6c5[C@@]42CCN(CC2CC2)C3C6)c1', 'nM', 50.1),
  ('O=C(Cc1ccc(Cl)cc1)O[C@@]12CCC(=O)[C@@H]3Oc4c(O)ccc5c4[C@@]31CCN(CC1CC1)C2C5', 'nM', 51.3),
  ('O=C(CCc1cccc(Cl)c1)O[C@@]12CCC(=O)[C@@H]3Oc4c(O)ccc5c4[C@@]31CCN(CC1CC1)C2C5', 'nM', 27);

* * *

Target: KOP (Homo sapiens, UniProt P41145)
Construct: expressed in transfected cells; host or cells: CHO cells (membranes)
Sequence (P41145 whole entry): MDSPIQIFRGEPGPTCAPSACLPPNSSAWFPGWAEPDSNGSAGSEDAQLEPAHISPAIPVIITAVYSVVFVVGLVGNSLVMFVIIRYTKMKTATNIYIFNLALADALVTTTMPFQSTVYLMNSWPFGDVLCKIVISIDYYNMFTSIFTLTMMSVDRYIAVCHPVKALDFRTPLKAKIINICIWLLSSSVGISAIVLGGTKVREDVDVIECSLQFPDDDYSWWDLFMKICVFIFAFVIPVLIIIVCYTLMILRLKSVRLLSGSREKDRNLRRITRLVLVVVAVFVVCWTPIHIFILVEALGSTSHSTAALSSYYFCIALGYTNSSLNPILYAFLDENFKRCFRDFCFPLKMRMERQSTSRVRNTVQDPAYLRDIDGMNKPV
Assay: biochemical
Format: binding
Conditions: [3H]U69593, membranes of CHO cells with human receptor
EXPERIMENTAL_ENDPOINT: Ki (nM)

INSERT INTO measurements (mol_smiles, obs_value) VALUES
  ('O=C(Cc1ccccc1F)O[C@@]12CCC(=O)[C@@H]3Oc4c(O)ccc5c4[C@@]31CCN(CC1CC1)C2C5', 4.55),
  ('COc1cccc(CCC(=O)O[C@@]23CCC(=O)[C@@H]4Oc5c(O)ccc6c5[C@@]42CCN(CC2CC2)C3C6)c1', 1.24),
  ('O=C(Cc1ccc2c(c1)OCO2)O[C@@]12CCC(=O)[C@@H]3Oc4c(O)ccc5c4[C@@]31CCN(CC1CC1)C2C5', 1.2),
  ('Cc1cccc(CCC(=O)O[C@@]23CCC(=O)[C@@H]4Oc5c(O)ccc6c5[C@@]42CCN(CC2CC2)C3C6)c1', 1.56),
  ('O=C(Cc1ccc(Cl)cc1)O[C@@]12CCC(=O)[C@@H]3Oc4c(O)ccc5c4[C@@]31CCN(CC1CC1)C2C5', 3.95),
  ('COc1ccccc1CCC(=O)O[C@@]12CCC(=O)[C@@H]3Oc4c(O)ccc5c4[C@@]31CCN(CC1CC1)C2C5', 1.24),
  ('Cc1ccccc1CCC(=O)O[C@@]12CCC(=O)[C@@H]3Oc4c(O)ccc5c4[C@@]31CCN(CC1CC1)C2C5', 0.64),
  ('COc1cccc(CC(=O)O[C@@]23CCC(=O)[C@@H]4Oc5c(O)ccc6c5[C@@]42CCN(CC2CC2)C3C6)c1', 1.44),
  ('COc1ccccc1CC(=O)O[C@@]12CCC(=O)[C@@H]3Oc4c(O)ccc5c4[C@@]31CCN(CC1CC1)C2C5', 3.52),
  ('Cc1ccccc1CC(=O)O[C@@]12CCC(=O)[C@@H]3Oc4c(O)ccc5c4[C@@]31CCN(CC1CC1)C2C5', 1.69),
  ('COc1ccc(CCC(=O)O[C@@]23CCC(=O)[C@@H]4Oc5c(O)ccc6c5[C@@]42CCN(CC2CC2)C3C6)cc1', 1.96),
  ('O=C(CCc1cccc(Cl)c1)O[C@@]12CCC(=O)[C@@H]3Oc4c(O)ccc5c4[C@@]31CCN(CC1CC1)C2C5', 0.74);

* * *

Biological target: MOP (Homo sapiens, UniProt P35372)
Construct: expressed in transfected cells; host or cells: CHO cells (membranes)
Sequence (P35372 whole entry): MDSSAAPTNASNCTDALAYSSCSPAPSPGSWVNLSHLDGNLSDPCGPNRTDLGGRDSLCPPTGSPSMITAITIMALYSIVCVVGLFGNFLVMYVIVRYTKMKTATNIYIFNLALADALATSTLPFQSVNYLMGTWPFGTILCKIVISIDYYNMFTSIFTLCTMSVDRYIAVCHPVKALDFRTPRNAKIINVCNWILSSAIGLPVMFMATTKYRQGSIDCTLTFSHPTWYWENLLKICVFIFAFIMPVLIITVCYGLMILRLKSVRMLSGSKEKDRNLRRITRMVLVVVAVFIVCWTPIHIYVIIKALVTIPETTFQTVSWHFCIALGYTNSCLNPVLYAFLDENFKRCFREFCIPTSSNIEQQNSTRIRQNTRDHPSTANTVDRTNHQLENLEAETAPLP
Test: biochemical
Type: binding
Conditions: [3H]DAMGO, membranes of CHO cells with human receptor
EXPERIMENTAL_ENDPOINT: Ki (nM)

INSERT INTO assay_data (mol_smiles, obs_value) VALUES
  ('COc1ccc(CCC(=O)O[C@@]23CCC(=O)[C@@H]4Oc5c(O)ccc6c5[C@@]42CCN(CC2CC2)C3C6)cc1', 0.91),
  ('O=C(Cc1ccccc1)O[C@@]12CCC(=O)[C@@H]3Oc4c(O)ccc5c4[C@@]31CCN(CC1CC1)C2C5', 0.86),
  ('O=C(Cc1ccccc1Cl)O[C@@]12CCC(=O)[C@@H]3Oc4c(O)ccc5c4[C@@]31CCN(CC1CC1)C2C5', 4.66),
  ('Cc1ccccc1CCC(=O)O[C@@]12CCC(=O)[C@@H]3Oc4c(O)ccc5c4[C@@]31CCN(CC1CC1)C2C5', 0.56),
  ('Cc1cccc(CCC(=O)O[C@@]23CCC(=O)[C@@H]4Oc5c(O)ccc6c5[C@@]42CCN(CC2CC2)C3C6)c1', 0.91),
  ('Cc1ccc(CCC(=O)O[C@@]23CCC(=O)[C@@H]4Oc5c(O)ccc6c5[C@@]42CCN(CC2CC2)C3C6)cc1', 0.78),
  ('COc1cccc(CC(=O)O[C@@]23CCC(=O)[C@@H]4Oc5c(O)ccc6c5[C@@]42CCN(CC2CC2)C3C6)c1', 1.1),
  ('COc1cccc(CCC(=O)O[C@@]23CCC(=O)[C@@H]4Oc5c(O)ccc6c5[C@@]42CCN(CC2CC2)C3C6)c1', 1.14),
  ('O=C(Cc1ccc2c(c1)OCO2)O[C@@]12CCC(=O)[C@@H]3Oc4c(O)ccc5c4[C@@]31CCN(CC1CC1)C2C5', 0.99),
  ('COc1ccccc1CC(=O)O[C@@]12CCC(=O)[C@@H]3Oc4c(O)ccc5c4[C@@]31CCN(CC1CC1)C2C5', 3.77),
  ('Cc1ccc(CC(=O)O[C@@]23CCC(=O)[C@@H]4Oc5c(O)ccc6c5[C@@]42CCN(CC2CC2)C3C6)cc1', 1.87),
  ('O=C(CCc1cccc(Cl)c1)O[C@@]12CCC(=O)[C@@H]3Oc4c(O)ccc5c4[C@@]31CCN(CC1CC1)C2C5', 0.39),
  ('Cc1cccc(CC(=O)O[C@@]23CCC(=O)[C@@H]4Oc5c(O)ccc6c5[C@@]42CCN(CC2CC2)C3C6)c1', 1.91),
  ('O=C(Cc1ccc(Cl)cc1)O[C@@]12CCC(=O)[C@@H]3Oc4c(O)ccc5c4[C@@]31CCN(CC1CC1)C2C5', 1.78);

These data points were gathered from patent US9969746B2.
